Data origin, for the record: BigSolDB 2.1

# CONDITION_NOTES: in n-hexane, 293.15 K
READOUT_TYPE: solubility (mole fraction)

| STRUCTURE_AS_SMILES | READOUT_TYPE | REPORTED_VALUE |
| --- | --- | --- |
| c1ccc(-n2c(-c3cc(-c4nc5ccccc5n4-c4ccccc4)cc(-c4nc5ccccc5n4-c4ccccc4)c3)nc3ccccc32)cc1 | solubility (mole fraction) | 5.8e-06 |

---

# CONDITION_NOTES: in acetonitrile, 293.15 K

| STRUCTURE_AS_SMILES | solubility (mole fraction) |
| --- | --- |
| c1ccc(-n2c(-c3cc(-c4nc5ccccc5n4-c4ccccc4)cc(-c4nc5ccccc5n4-c4ccccc4)c3)nc3ccccc32)cc1 | 0.000135 |

---

# CONDITION_NOTES: in ethyl acetate, 303.15 K
READOUT_TYPE: solubility (mole fraction)

| STRUCTURE_AS_SMILES | REPORTED_VALUE |
| --- | --- |
| c1ccc(-n2c(-c3cc(-c4nc5ccccc5n4-c4ccccc4)cc(-c4nc5ccccc5n4-c4ccccc4)c3)nc3ccccc32)cc1 | 0.000921 |

---

# CONDITION_NOTES: in ethanol, 303.15 K

| STRUCTURE_AS_SMILES | solubility (mole fraction) |
| --- | --- |
| c1ccc(-n2c(-c3cc(-c4nc5ccccc5n4-c4ccccc4)cc(-c4nc5ccccc5n4-c4ccccc4)c3)nc3ccccc32)cc1 | 0.000542 |

---

# CONDITION_NOTES: in cyclohexane, 283.15 K

| STRUCTURE_AS_SMILES | solubility (mole fraction) |
| --- | --- |
| c1ccc(-n2c(-c3cc(-c4nc5ccccc5n4-c4ccccc4)cc(-c4nc5ccccc5n4-c4ccccc4)c3)nc3ccccc32)cc1 | 2e-07 |

---

# CONDITION_NOTES: in n-butanol, 283.15 K
READOUT_TYPE: solubility (mole fraction)

| STRUCTURE_AS_SMILES | REPORTED_VALUE |
| --- | --- |
| c1ccc(-n2c(-c3cc(-c4nc5ccccc5n4-c4ccccc4)cc(-c4nc5ccccc5n4-c4ccccc4)c3)nc3ccccc32)cc1 | 0.00117 |

---

# CONDITION_NOTES: in methanol, 283.15 K
READOUT_TYPE: solubility (mole fraction)

| STRUCTURE_AS_SMILES | REPORTED_VALUE |
| --- | --- |
| c1ccc(-n2c(-c3cc(-c4nc5ccccc5n4-c4ccccc4)cc(-c4nc5ccccc5n4-c4ccccc4)c3)nc3ccccc32)cc1 | 0.000236 |

---

# CONDITION_NOTES: in ethyl acetate, 323.15 K

| STRUCTURE_AS_SMILES | solubility (mole fraction) |
| --- | --- |
| c1ccc(-n2c(-c3cc(-c4nc5ccccc5n4-c4ccccc4)cc(-c4nc5ccccc5n4-c4ccccc4)c3)nc3ccccc32)cc1 | 0.00174 |

---

# CONDITION_NOTES: in cyclohexane, 293.15 K

| STRUCTURE_AS_SMILES | solubility (mole fraction) |
| --- | --- |
| c1ccc(-n2c(-c3cc(-c4nc5ccccc5n4-c4ccccc4)cc(-c4nc5ccccc5n4-c4ccccc4)c3)nc3ccccc32)cc1 | 4e-07 |

---

# CONDITION_NOTES: in chlorobenzene, 303.15 K

| STRUCTURE_AS_SMILES | solubility (mole fraction) |
| --- | --- |
| c1ccc(-n2c(-c3cc(-c4nc5ccccc5n4-c4ccccc4)cc(-c4nc5ccccc5n4-c4ccccc4)c3)nc3ccccc32)cc1 | 0.00857 |

---

# CONDITION_NOTES: in acetonitrile, 283.15 K
READOUT_TYPE: solubility (mole fraction)

| STRUCTURE_AS_SMILES | REPORTED_VALUE |
| --- | --- |
| c1ccc(-n2c(-c3cc(-c4nc5ccccc5n4-c4ccccc4)cc(-c4nc5ccccc5n4-c4ccccc4)c3)nc3ccccc32)cc1 | 0.000114 |

---

# CONDITION_NOTES: in ethyl acetate, 293.15 K

| STRUCTURE_AS_SMILES | solubility (mole fraction) |
| --- | --- |
| c1ccc(-n2c(-c3cc(-c4nc5ccccc5n4-c4ccccc4)cc(-c4nc5ccccc5n4-c4ccccc4)c3)nc3ccccc32)cc1 | 0.000777 |

---

# CONDITION_NOTES: in ethyl acetate, 313.15 K

| STRUCTURE_AS_SMILES | solubility (mole fraction) |
| --- | --- |
| c1ccc(-n2c(-c3cc(-c4nc5ccccc5n4-c4ccccc4)cc(-c4nc5ccccc5n4-c4ccccc4)c3)nc3ccccc32)cc1 | 0.0012 |

---

# CONDITION_NOTES: in isopropanol, 303.15 K

| STRUCTURE_AS_SMILES | solubility (mole fraction) |
| --- | --- |
| c1ccc(-n2c(-c3cc(-c4nc5ccccc5n4-c4ccccc4)cc(-c4nc5ccccc5n4-c4ccccc4)c3)nc3ccccc32)cc1 | 3.04e-05 |

---

# CONDITION_NOTES: in chlorobenzene, 283.15 K

| STRUCTURE_AS_SMILES | solubility (mole fraction) |
| --- | --- |
| c1ccc(-n2c(-c3cc(-c4nc5ccccc5n4-c4ccccc4)cc(-c4nc5ccccc5n4-c4ccccc4)c3)nc3ccccc32)cc1 | 0.00588 |

---

# CONDITION_NOTES: in n-hexane, 323.15 K
READOUT_TYPE: solubility (mole fraction)

| STRUCTURE_AS_SMILES | REPORTED_VALUE |
| --- | --- |
| c1ccc(-n2c(-c3cc(-c4nc5ccccc5n4-c4ccccc4)cc(-c4nc5ccccc5n4-c4ccccc4)c3)nc3ccccc32)cc1 | 2.22e-05 |

---

# CONDITION_NOTES: in chloroform, 303.15 K
READOUT_TYPE: solubility (mole fraction)

| STRUCTURE_AS_SMILES | READOUT_TYPE | REPORTED_VALUE |
| --- | --- | --- |
| c1ccc(-n2c(-c3cc(-c4nc5ccccc5n4-c4ccccc4)cc(-c4nc5ccccc5n4-c4ccccc4)c3)nc3ccccc32)cc1 | solubility (mole fraction) | 0.0092 |

---

# CONDITION_NOTES: in acetonitrile, 323.15 K
READOUT_TYPE: solubility (mole fraction)

| STRUCTURE_AS_SMILES | READOUT_TYPE | REPORTED_VALUE |
| --- | --- | --- |
| c1ccc(-n2c(-c3cc(-c4nc5ccccc5n4-c4ccccc4)cc(-c4nc5ccccc5n4-c4ccccc4)c3)nc3ccccc32)cc1 | solubility (mole fraction) | 0.000232 |

---

# CONDITION_NOTES: in isopropanol, 293.15 K
READOUT_TYPE: solubility (mole fraction)

| STRUCTURE_AS_SMILES | REPORTED_VALUE |
| --- | --- |
| c1ccc(-n2c(-c3cc(-c4nc5ccccc5n4-c4ccccc4)cc(-c4nc5ccccc5n4-c4ccccc4)c3)nc3ccccc32)cc1 | 2.18e-05 |

---

# CONDITION_NOTES: in isopropanol, 323.15 K
READOUT_TYPE: solubility (mole fraction)

| STRUCTURE_AS_SMILES | READOUT_TYPE | REPORTED_VALUE |
| --- | --- | --- |
| c1ccc(-n2c(-c3cc(-c4nc5ccccc5n4-c4ccccc4)cc(-c4nc5ccccc5n4-c4ccccc4)c3)nc3ccccc32)cc1 | solubility (mole fraction) | 6.88e-05 |

---

# CONDITION_NOTES: in THF, 293.15 K

| STRUCTURE_AS_SMILES | solubility (mole fraction) |
| --- | --- |
| c1ccc(-n2c(-c3cc(-c4nc5ccccc5n4-c4ccccc4)cc(-c4nc5ccccc5n4-c4ccccc4)c3)nc3ccccc32)cc1 | 0.00202 |

---

# CONDITION_NOTES: in n-butanol, 303.15 K

| STRUCTURE_AS_SMILES | solubility (mole fraction) |
| --- | --- |
| c1ccc(-n2c(-c3cc(-c4nc5ccccc5n4-c4ccccc4)cc(-c4nc5ccccc5n4-c4ccccc4)c3)nc3ccccc32)cc1 | 0.00155 |

---

# CONDITION_NOTES: in chlorobenzene, 293.15 K
READOUT_TYPE: solubility (mole fraction)

| STRUCTURE_AS_SMILES | READOUT_TYPE | REPORTED_VALUE |
| --- | --- | --- |
| c1ccc(-n2c(-c3cc(-c4nc5ccccc5n4-c4ccccc4)cc(-c4nc5ccccc5n4-c4ccccc4)c3)nc3ccccc32)cc1 | solubility (mole fraction) | 0.00711 |

---

# CONDITION_NOTES: in chloroform, 283.15 K

| STRUCTURE_AS_SMILES | solubility (mole fraction) |
| --- | --- |
| c1ccc(-n2c(-c3cc(-c4nc5ccccc5n4-c4ccccc4)cc(-c4nc5ccccc5n4-c4ccccc4)c3)nc3ccccc32)cc1 | 0.00762 |
